- System: LOX IMVI melanoma
- method: NCI tumour cell line growth inhibition, 48 h
Below, each entry is listed alongside its reported TGI.

* COc1cccc2c1OC(c1ccc(C#N)cc1)C([N+](=O)[O-])=C2 (stereo unspecified) | 3.38 µM
* O=C(Nc1ccccc1)N(C1=NCC(CI)S1)c1ccc(F)cc1F (stereo unspecified) | 35.2 µM
* COC(=O)C(=O)C(C(=O)C(=O)Nc1nc2ccc(C)cc2s1)c1nc2ccc([N+](=O)[O-])cc2[nH]c1=O (stereo unspecified) | > 100 µM
* CCCCCCCCOCC(O)COC(=O)CCCCCCC (stereo unspecified) | > 100 µM
* CCOc1ccc(N/C(Cl)=C(Cl)\C(=C(\Nc2ccc(OCC)cc2)n2nnc3ccccc32)[N+](=O)[O-])cc1 | 3.96 µM

Input: # get_value(readout='TGI', item= COc1cc2cccc(N)c2cc1OC )
Output: > 100 µM

Input: # get_value(readout='TGI', item= O=C1Nc2c(C(F)(F)F)cccc2[C@@]1(c1ccc(O)cc1)c1ccc(OC(F)(F)F)cc1 )
Output: < 0.0137 µM

Input: # get_value(readout='TGI', item= COC1CCN(C(=O)c2cc(Cc3n[nH]c(=O)c4ccccc34)ccc2F)CC1 )
Output: > 100 µM

Input: # get_value(readout='TGI', item= O=C(c1ccccc1)c1ccc(-n2c3ccccc3c3ccc4c(c32)C(=O)C=CC4=O)cc1 )
Output: 16.3 µM

Input: # get_value(readout='TGI', item= COc1cc(C2C(C#N)=C(N)OC3=C2CCS(=O)(=O)c2ccc(C)cc23)cc(OC)c1OC (stereo unspecified) )
Output: > 100 µM
